Overview of reported EC50 across a group of molecules:
- System: CEM cells HIV-1 protection, formazan growth assay
- assay remarks: NCI AIDS Antiviral Assay
property: EC50

molecule="C=CC(C)(C)C1Oc2cc(O)ccc2C(=O)C1c1ccc(OC)c(OC)c1O (configuration not stated)" property=EC50 measured_result="> 200 µM"
molecule="C/C(=N/NC(=O)C[N+](C)(C)C)C(CN(C)C)C(=O)Nc1ccccc1 (configuration not stated)" property=EC50 measured_result="> 13.5 µM"
molecule="O=C(NCc1ccccc1)C1C(=O)C(=O)N(Cc2ccccc2)C1=O (configuration not stated)" property=EC50 measured_result="> 269 µM"
molecule=Cc1nnc(N)nc1/C=C/c1c(O)ccc2ccccc12 property=EC50 measured_result="> 200 µM"
molecule=O=[N+]([O-])C(=C(N1CCOCC1)N1CCOCC1)/C(Cl)=C(\Cl)Br property=EC50 measured_result="> 200 µM"
molecule=C/C(=N/NC(=S)NCCc1ccccn1)c1cnccn1 property=EC50 measured_result="> 200 µM"
molecule=Cc1ccc2c(c1)c1ccc3c(c1n2C)C(=O)C=CC3=O property=EC50 measured_result="> 100 µM"
molecule=COC(=O)[C@@H]1CO[C@H](C(C)(C)C)N1C(=O)N1C=CC(=O)C[C@H]1C property=EC50 measured_result="> 200 µM"
molecule="O=S(=O)(O)NCC1OC2OC3C(CNS(=O)(=O)O)OC(OC4C(CNS(=O)(=O)O)OC(OC5C(CNS(=O)(=O)O)OC(OC6C(CNS(=O)(=O)O)OC(OC7C(CNS(=O)(=O)O)OC(OC8C(CNS(=O)(=O)O)OC(OC1C(OS(=O)(=O)O)C2OS(=O)(=O)O)C(OS(=O)(=O)O)C8OS(=O)(=O)O)C(OS(=O)(=O)O)C7OS(=O)(=O)O)C(OS(=O)(=O)O)C6OS(=O)(=O)O)C(OS(=O)(=O)O)C5OS(=O)(=O)O)C(OS(=O)(=O)O)C4OS(=O)(=O)O)C(OS(=O)(=O)O)C3OS(=O)(=O)O (configuration not stated)" property=EC50 measured_result="> 50.1 µM"
molecule=Cc1cc(C)c2c(c1)sc1n[nH]c(=S)n12 property=EC50 measured_result="> 63.1 µM"
molecule=CCOC(=O)C(Cc1ccccc1[N+](=O)[O-])C(=O)OCC property=EC50 measured_result="> 200 µM"
molecule=CCOC(=O)N/N=C(\Cc1ccc([N+](=O)[O-])cc1)OCC property=EC50 measured_result="> 200 µM"
molecule=CC1=CO[C@@H]2O[C@@]3(C)CC[C@H]4[C@H](C)CC[C@@H]1[C@@]24O3 property=EC50 measured_result="> 200 µM"
molecule="Nc1ncnc2c1ncn2C1C=CC(CP(=O)(O)O)C1 (configuration not stated)" property=EC50 measured_result="> 200 µM"
molecule=NC(=O)c1ccc([As](=O)(O)O)cc1N property=EC50 measured_result="> 200 µM"
molecule=COc1ccc(OC)c(/C=C/c2ccc3ccccc3n2)c1 property=EC50 measured_result="> 24.5 µM"
molecule="COC1=CC(=O)C2[C@H]3Cc4ccccc4[C@H]3C2(C)C1=O (some centres not stated)" property=EC50 measured_result="> 51.3 µM"
molecule=Cn1c(-c2csc(-c3ccc(Cl)cc3)n2)n[nH]c1=S property=EC50 measured_result="> 200 µM"
molecule=NC(N)=NS(=O)(=O)c1ccc(NCc2c3ccccc3nc3ccccc23)cc1 property=EC50 measured_result="> 2 µM"
molecule=COc1ccc(C2=C/C(=C3/C(=O)C=C(C)OC3=O)SS2)cc1 property=EC50 measured_result="> 100 µM"
molecule="CC1(C)CC2(C)CC1CC2(O)c1ccccc1 (configuration not stated)" property=EC50 measured_result="> 219 µM"
molecule=O=C([O-])c1n[nH]c([O-])c1N=Nc1ccc(/C=C/c2ccc(N=Nc3c(C(=O)[O-])n[nH]c3[O-])cc2S(=O)(=O)[O-])c(S(=O)(=O)[O-])c1.[Cu+2].[Cu+2].[Na+] property=EC50 measured_result="> 50.1 µM"
molecule="CP(=O)(O)C(N)c1ccccc1 (configuration not stated)" property=EC50 measured_result="> 200 µM"
molecule="COC1OC(C)/C(=N/O)C2OC(C)(C)OC12 (configuration not stated)" property=EC50 measured_result="> 1070 µM"
molecule="CN(C)CC1CCCCCC(CN(C)C)C1=O (configuration not stated)" property=EC50 measured_result="> 20 µM"
molecule=O=[N+]([O-])c1ccc(-c2nn3c(C45CC6CC(CC(C6)C4)C5)nnc3s2)c(Cl)c1 property=EC50 measured_result="> 200 µM"
molecule="O=C(CC(=O)N1N=C(n2ccc3ccccc32)CC1c1ccccc1)Nc1ccc(Cl)cc1 (configuration not stated)" property=EC50 measured_result="> 1.2 µM"
